Data credit: patent US9340537B2

# Tested on: Ba/F3-BCR-ABL1-WT cells
# measurementProtocol: Proliferation assay Ba/F3-BCR-ABL1-WT cells
# Type: cell-based, murine
# settings: Mus musculus; 48 hours, Britelite luminescence; read-out: Ba/F3-BCR-ABL1-WT IC50
reportedMetric: pIC50
Answers are plain numbers, as −log10 of the molar value.

Examples with their reported pIC50 follow.
O=C(Nc1ccc(OC(F)(F)Cl)cc1)c1cnc(N2CC[C@@H](O)C2)c(-c2ncc[nH]2)c1 [Example 71]
8.96
O=C(Nc1ccc(OC(F)(F)Cl)cc1)c1ccc(N2C[C@H](O)[C@@H](O)C2)c(-c2ccn[nH]2)c1 [Example 77]
8.39

The value of pIC50 measured for the compound O=C(Nc1ccc(OC(F)(F)F)cc1)c1cnc(N2CC[C@@H](O)C2)c(-c2ncc[nH]2)c1 [Example 70] turned out to be 8.24
